Origin of the recorded values: ChEMBL document CHEMBL4184195

System: Erythrocyte
Test: Hemolytic activity in human RBC after 1 hr
Assay type: ADME, cell-based
Bridge positions count the residues as written; N and C are the ends. Square brackets hold non-standard residues; d marks the D form. Peptide text beside a SMILES is read from it. S5 = C=CCCC[C@](C)(N)C(=O)O
Give MHC for every item shown.
One number for each entry, in µM.

- compound: "C[C@H](NC(=O)CNC(=O)[C@H](Cc1ccccc1)NC(=O)[C@]1(C)CCC/C=C\\CCC[C@](C)(NC(=O)[C@H](Cc2ccccc2)NC(=O)CNC(=O)[C@H](C)NC(=O)[C@H](CCCCN)NC(=O)[C@H](CCCCN)NC(=O)[C@H](CCCCN)NC(=O)[C@H](CCCCN)NC(=O)[C@H](CCCCN)NC(=O)[C@@H](N)CCCCN)C(=O)N[C@@H](C)C(=O)N[C@@H](Cc2c[nH]c3ccccc23)C(=O)N[C@@H](C)C(=O)N1)C(N)=O (H-KKKKKKAGF[S5]AWA[S5]FGA-NH2; staple (Z) 10-14)"
  quantity: "MHC"
  unit-name: "µM"
  numeric-result: 15

Provide MHC values for the following items, in order.
1. C[C@H](NC(=O)[C@H](C)NC(=O)[C@H](Cc1ccccc1)NC(=O)[C@]1(C)CCC/C=C\CCC[C@](C)(NC(=O)[C@H](Cc2ccccc2)NC(=O)[C@H](C)NC(=O)[C@H](C)NC(=O)[C@H](CCCCN)NC(=O)[C@H](CCCCN)NC(=O)[C@H](CCCCN)NC(=O)[C@H](CCCCN)NC(=O)[C@H](CCCCN)NC(=O)[C@@H](N)CCCCN)C(=O)N[C@@H](C)C(=O)N[C@@H](Cc2c[nH]c3ccccc23)C(=O)N[C@@H](C)C(=O)N1)C(N)=O (H-KKKKKKAAF[S5]AWA[S5]FAA-NH2; staple (Z) 10-14)
2. C[C@H](NC(=O)CNC(=O)[C@H](Cc1ccccc1)NC(=O)[C@]1(C)CCC/C=C\CCC[C@](C)(NC(=O)[C@H](Cc2ccccc2)NC(=O)CNC(=O)[C@H](CC(N)=O)NC(=O)[C@H](CCCCN)NC(=O)[C@H](CCCCN)NC(=O)[C@H](CCCCN)NC(=O)[C@H](CCCCN)NC(=O)[C@H](CCCCN)NC(=O)[C@@H](N)CCCCN)C(=O)N[C@@H](C)C(=O)N[C@@H](Cc2c[nH]c3ccccc23)C(=O)NCC(=O)N1)C(N)=O (H-KKKKKKNGF[S5]AWG[S5]FGA-NH2; staple (Z) 10-14)

[3.8, 587]
